test-target: Carbonic anhydrase 9 (Homo sapiens, UniProt Q16790)
metric: Ki (nM)
Give a bare numeral; the unit nM is implied.

Record NS(=O)(=O)c1cn(CC(=O)c2ccc(Cl)cc2)ccc1=O ; system Carbonic anhydrase 9 (Homo sapiens, UniProt Q16790); Ki = 11.8

Query NS(=O)(=O)c1cn(CC(=O)c2cccc([N+](=O)[O-])c2)ccc1=O on Carbonic anhydrase 9 (Homo sapiens, UniProt Q16790); Ki returned: 11.9

Tested on Carbonic anhydrase 9 (Homo sapiens, UniProt Q16790), the item NS(=O)(=O)c1cn(-c2ccc([N+](=O)[O-])c3[n-][o+]nc23)ccc1=O showed Ki equal to 6.9

Attribution: ChEMBL document CHEMBL1240418
